Target System: human TRPC5 (Homo sapiens)
Construct: expressed in transfected cells; host or cells: HEK 293
Sequence (Q9UL62 whole entry): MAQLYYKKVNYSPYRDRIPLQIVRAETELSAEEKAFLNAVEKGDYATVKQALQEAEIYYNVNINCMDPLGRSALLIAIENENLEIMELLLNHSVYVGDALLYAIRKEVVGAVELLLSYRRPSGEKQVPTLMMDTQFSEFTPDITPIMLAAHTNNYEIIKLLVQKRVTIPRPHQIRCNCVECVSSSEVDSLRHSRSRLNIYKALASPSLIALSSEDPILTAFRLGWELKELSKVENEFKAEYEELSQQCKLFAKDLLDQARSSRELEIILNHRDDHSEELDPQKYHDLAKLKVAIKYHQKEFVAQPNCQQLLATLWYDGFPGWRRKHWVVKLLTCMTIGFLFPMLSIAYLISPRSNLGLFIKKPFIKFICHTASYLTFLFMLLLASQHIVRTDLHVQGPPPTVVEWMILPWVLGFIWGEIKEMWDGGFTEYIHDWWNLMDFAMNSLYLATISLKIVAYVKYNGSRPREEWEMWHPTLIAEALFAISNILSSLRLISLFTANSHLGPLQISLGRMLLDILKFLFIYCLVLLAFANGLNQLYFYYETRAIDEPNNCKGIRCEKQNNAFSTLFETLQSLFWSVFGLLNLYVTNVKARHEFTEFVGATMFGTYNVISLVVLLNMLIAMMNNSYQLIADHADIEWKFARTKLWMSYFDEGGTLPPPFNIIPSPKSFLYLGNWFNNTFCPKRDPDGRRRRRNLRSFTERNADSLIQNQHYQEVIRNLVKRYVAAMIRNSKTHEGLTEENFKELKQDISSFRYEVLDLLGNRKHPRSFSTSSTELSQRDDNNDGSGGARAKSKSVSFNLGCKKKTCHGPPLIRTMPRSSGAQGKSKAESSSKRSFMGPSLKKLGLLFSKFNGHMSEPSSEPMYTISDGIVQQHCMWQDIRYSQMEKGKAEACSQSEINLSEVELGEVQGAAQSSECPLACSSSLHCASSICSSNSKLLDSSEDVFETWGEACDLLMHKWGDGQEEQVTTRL
Assay Comment: TRPC5 fluorescence-based assay (Ca2+ flux assay in FLIPR format), cells overexpressing TRPC5
Assay type: cell-based
Condition Label: 5 μM of test compound, following Carbachol stimulation
Quantity: inhibition at 5 µM (%)

Previously resolved entries follow.
# Compound, Target System, Quantity, Reported Result
data = [
    ("Fc1cccc(Cl)c1Cn1c(-c2ccco2)nc2ccccc21", "human TRPC5 (Homo sapiens)", "inhibition at 5 µM", 47.9),
    ("Cc1nc2ccccc2n1CC(=O)Nc1ccc(Cl)cc1", "human TRPC5 (Homo sapiens)", "inhibition at 5 µM", 39.7),
    ("Nc1nc2ccccc2n1CCOc1ccccc1Cl", "human TRPC5 (Homo sapiens)", "inhibition at 5 µM", 49.9),
    ("CC(C)n1c(Nc2ccccc2)nc2ccccc21", "human TRPC5 (Homo sapiens)", "inhibition at 5 µM", 35.7),
]

1: C#CCn1c(Cc2ccc(OC)c(OC)c2)nc2ccccc21
2: CCOc1ccccc1CNc1nc2ccccc2n1C
I need your help: which of the pair 1 , 2 has higher inhibition at 5 µM? Use the label to indicate which entry you chose.
1
